Cited source: patent USRE37781E1

Biological target: single-chain tethered dimer of HIV protease (Human immunodeficiency virus 1, UniProt P04585)
Assay: biochemical
Format: biochemical
Details: Table 2t; read-out: Ki
Exercise: state measured Ki for each of the compounds provided.

Compound	Readout Name	Result
O=C1N(CCCCCCO)CC(O)C(Cc2ccccc2)N1CCCCCCO (stereo not shown) [30G]	Ki	> 1000 nM
O=C1N(Cc2ccccc2)CC(O)C(Cc2ccccc2)N1Cc1ccccc1 (racemic) [30A]	Ki	> 1000 nM
O=C1N(Cc2ccccc2)CCC(O)C(Cc2ccccc2)N1Cc1ccccc1 (stereo not shown) [30L]	Ki	> 1000 nM
N#Cc1cccc(CN2CC(O)C(Cc3ccccc3)N(Cc3cccc(C#N)c3)C2=O)c1 (stereo not shown) [30C]	Ki	> 1000 nM
O=C1N(Cc2ccccc2)CCC(=NO)C(Cc2ccccc2)N1Cc1ccccc1 (stereo not shown) [30T]	Ki	> 1000 nM
O=S1(=O)N(CC2CC2)CC(O)C(Cc2ccccc2)N1CC1CC1 (stereo not shown) [30J]	Ki	> 1000 nM

Look at each compound and report its Ki.
1. O=C1N(Cc2ccccc2)CC(O)C(Cc2ccccc2)N1Cc1ccccc1 (stereo not shown) [30U]
2. O=C1N(CC2CC2)CCC(O)C(Cc2ccccc2)N1CC1CC1 (stereo not shown) [30O]

1: > 1000 nM; 2: > 1000 nM

Look at each compound and report its Ki.
1. O=S1(=O)N(Cc2ccccc2)CCC(O)C(Cc2ccccc2)N1Cc1ccccc1 (stereo not shown) [30Q]
2. O=C1N(CC2CC2)CC(O)C(Cc2ccccc2)N1CC1CC1 (stereo not shown) [30E]
3. O=C1N(Cc2ccc(CO)cc2)CCC(O)C(Cc2ccccc2)N1Cc1ccc(CO)cc1 (stereo not shown) [30N]
4. O=C1N(Cc2ccc3ccccc3c2)CCC(O)C(Cc2ccccc2)N1Cc1ccc2ccccc2c1 (stereo not shown) [30M]
5. O=C1N(Cc2ccc(CO)cc2)CC(O)C(Cc2ccccc2)N1Cc1ccc(CO)cc1 (stereo not shown) [30B]

["> 1000 nM", "> 1000 nM", "10 to 1000 nM", "> 1000 nM", "> 1000 nM"]
